Multi-source literature compilation: pIC50 on UniProtKB O75907.
pIC50: −log10 of the molar value.
assayMetric: pIC50

Example results:
O=C(CCCc1ccccc1)Nc1ccc(N2CCN(C(=O)Nc3c(F)cccc3F)CC2)cc1 | 7.22
Cc1ccccc1-c1cccc(C(=O)Nc2ccc(C3CCN(C(=O)Nc4c(Cl)cccc4Cl)CC3)cc2)c1 | 7.76
CN(C)c1ccc(NC(=O)N2CC=C(c3ccc(NC(=O)c4ccccc4-c4ccc(C(F)(F)F)cc4)cc3)CC2)cc1 | 5.17
O=C(O)c1cccc(OC2CCN(c3ccc(-c4nc5cc(C(F)(F)F)ccc5[nH]4)cn3)CC2)c1 | 8.05
COC(C)(C)Cn1ccc2cc(N3CCOc4ncnc(N)c4C3=O)ccc21 | 7.37

(a) Cc1ccccc1NC(=O)N1CCN(c2ccc(NC(=O)c3ccccc3-c3ccc(C(F)(F)F)cc3)cc2)CC1
(b) CCCCCC12CCC(C(=O)NCCNC(=O)c3ccc(O[C@H]4CC[C@@H](C(=O)O)CC4)cc3)(CC1)CC2
Which shows the larger pIC50 value: a or b ? Answer format: the label of the selected item.
b
(b: 8.68, a: 5.96)

* * *

Below are IC50 measurements against human DGAT1 (Homo sapiens, UniProt O75907) drawn from the literature.
Sequence (O75907 whole entry): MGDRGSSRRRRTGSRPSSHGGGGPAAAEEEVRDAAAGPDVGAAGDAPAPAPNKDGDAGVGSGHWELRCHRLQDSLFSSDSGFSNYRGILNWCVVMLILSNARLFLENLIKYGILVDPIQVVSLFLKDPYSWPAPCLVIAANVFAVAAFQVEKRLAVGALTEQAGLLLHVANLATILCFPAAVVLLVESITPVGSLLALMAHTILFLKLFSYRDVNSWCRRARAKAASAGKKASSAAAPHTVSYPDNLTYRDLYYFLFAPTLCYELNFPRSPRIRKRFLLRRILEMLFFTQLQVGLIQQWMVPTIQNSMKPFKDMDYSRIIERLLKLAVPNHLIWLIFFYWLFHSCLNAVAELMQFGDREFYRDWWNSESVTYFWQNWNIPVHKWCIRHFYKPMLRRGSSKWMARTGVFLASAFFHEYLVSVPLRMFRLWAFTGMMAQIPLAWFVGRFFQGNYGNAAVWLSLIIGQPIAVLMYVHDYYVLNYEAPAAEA
assayMetric: IC50 (nM)

(a) N#C/N=C(/Nc1ccccc1)N1CCN(c2ccc(NC(=O)CCCc3ccccc3)cc2)CC1
(b) CCC1(CC(=O)O)CCc2cc(-c3ccc(NC(=O)Nc4ccccc4)cc3Cl)ccc2C1=O (stereo not drawn)
API: POST /compare with a and b ; response names the item with higher IC50. Let me know the label of the one you choose.
a
(a: 1350 nM, b: 31.8 nM)

(1) CC[C@@]1(CC(=O)O)CCc2cc(-c3ccc(NC(=O)Nc4cccc(C(F)(F)F)c4)cc3)ccc2[C@@H]1O (relative stereo)
(2) O=C(CCCc1ccccc1)Nc1ccc(N2CCN(C(=O)Nc3c(Cl)cc(C(=O)NCCN4CCOCC4)cc3Cl)CC2)cc1
Which gives the smaller IC50 number: 1 or 2 ? The response must carry the label of the picked entry.
1
(1: 10.8 nM, 2: 37.2 nM)

(A) CC(C)(C)OC(=O)NC(CC#N)C(=O)Nc1ccc(C2CCN(C(=O)Nc3c(Cl)cccc3Cl)CC2)cc1 (stereo not drawn)
(B) O=C1CN([C@H]2CC[C@@H](OC3CCN(c4ccc(-c5nc6cc(F)c(F)cc6[nH]5)cn4)CC3)CC2)S(=O)(=O)N1
Lab note: record which item had the higher IC50, A or B . Respond with the label that goes with your answer.
A

(A) O=C(Nc1ccc(C2=CCN(C(=O)NCC3CCCCC3)CC2)cc1)c1ccccc1-c1ccc(C(F)(F)F)cc1
(B) O=C(CCCC(=O)OCc1ccccc1)Nc1ccc(N2CCN(C(=O)Nc3c(Cl)cc(CN4CCCCC4)cc3Cl)CC2)cc1
(C) O=C(Nc1ccc(N2CCN(C(=O)Nc3c(Cl)cccc3Cl)CC2)cc1)c1ccccc1N1CCS(=O)(=O)CC1
Ordering: ascending IC50. Answer format: the labels, in the requested order.
B, C, A

(a) CCC(C)c1ccccc1NC(=O)N1CCN(c2ccc(NC(=O)CCCc3ccccc3)cc2)CC1 (stereo not drawn)
(b) COCCNC(=O)c1cc(Cl)c(NC(=O)N2CCN(c3ccc(NC(=O)CCCc4ccccc4)cc3)CC2)c(Cl)c1
(c) O=C(CCCc1ccccc1)Nc1ccc(N2CCN(C(=O)C(O)c3ccc(F)c(F)c3)CC2)cc1 (stereo not drawn)
List the 3 entries from lowest IC50 to highest IC50 value. Would you mind listing the labels in the order asked for?
b, a, c
(b: 26.3 nM, a: 1700 nM, c: 3720 nM)
